// data source = the supplement of paper PMC10307832

Entries and their relative viability
# Test system: LCLC-97TM1
# Procedure Summary: relative viability (nuclei count vs DMSO), 5 days (fraction); higher = more cells survive
# Settings: first compound 0.8 µM
Hey, just send me the number, nothing else.

Completed entries (count: 2):
>  <Compound>
O=c1[nH]c2ccccc2n1C1CCN(CCCC(c2ccc(F)cc2)c2ccc(F)cc2)CC1 [Pimozide] + COc1cc2c(Oc3ccc(NC(=O)C4(C(=O)Nc5ccc(F)cc5)CC4)cc3F)ccnc2cc1OCCCN1CCOCC1 [Foretinib] (partner 0.25 µM)

>  <Assayed Target>
LCLC-97TM1

>  <Reported>
0.823

$$$$
>  <Compound>
Cc1cnc(-c2cnc(NCCNc3ccc(C#N)cn3)nc2-c2ccc(Cl)cc2Cl)[nH]1 + C[C@@H](Oc1cc(-c2cnn(C3CCNCC3)c2)cnc1N)c1c(Cl)ccc(F)c1Cl [Crizotinib] (partner 1 µM)

>  <Assayed Target>
LCLC-97TM1

>  <Reported>
0.362

$$$$

Reported relative viability ( O=c1[nH]c2ccccc2n1C1CCN(CCCC(c2ccc(F)cc2)c2ccc(F)cc2)CC1 [Pimozide] + CC(=O)c1c(C)c2cnc(Nc3ccc(N4CCNCC4)cn3)nc2n(C2CCCC2)c1=O [Palbociclib] (partner 0.5 µM) ) = 0.203

* * *

Entries and their relative viability
# System: NCI-H2087
# Procedure Summary: relative viability (nuclei count vs DMSO), 5 days (fraction); higher = more cells survive
# Settings: first compound 0.253 µM
Hey, just send me the number, nothing else.

>  <Compound>
O=c1[nH]c2ccccc2n1C1CCN(CCCC(c2ccc(F)cc2)c2ccc(F)cc2)CC1 [Pimozide] + Cc1nc(NC(=O)N2CCC[C@H]2C(N)=O)sc1-c1ccnc(C(C)(C)C(F)(F)F)c1 [Alpelisib] (partner 2 µM)

>  <relative viability>
1.1

$$$$
>  <Compound>
O=c1[nH]c2ccccc2n1C1CCN(CCCC(c2ccc(F)cc2)c2ccc(F)cc2)CC1 [Pimozide] + Nc1nc2[nH]cc(CCc3ccc(C(=O)N[C@@H](CCC(=O)O)C(=O)O)cc3)c2c(=O)[nH]1 [Pemetrexed] (partner 0.2 µM)

>  <relative viability>
0.608

$$$$

The record that follows has no relative viability shown yet.
Reported relative viability ( Cc1cnc(-c2cnc(NCCNc3ccc(C#N)cn3)nc2-c2ccc(Cl)cc2Cl)[nH]1 + CC(C)C[C@H](NC(=O)[C@H](Cc1ccccc1)NC(=O)c1cnccn1)B(O)O [Bortezomib] (partner 0.002 µM) ) = 0.683

* * *

Entries and their relative viability
# Tested on: LC-2-ad
# Procedure Summary: relative viability (nuclei count vs DMSO), 5 days (fraction); higher = more cells survive
# Settings: first compound 4 µM
Hey, just send me the number, nothing else.

Completed entries (count: 2):
>  <Compound>
Cc1sc2c(c1C)C(c1ccc(Cl)cc1)=N[C@@H](CC(=O)OC(C)(C)C)c1nnc(C)n1-2 [JQ1] + COc1cccc2cc(-c3nc([C@H]4CC[C@H](C(=O)O)CC4)n4ncnc(N)c34)[nH]c12 [OSI-027] (partner 0.5 µM)

>  <relative viability>
0.302

$$$$
>  <Compound>
Cc1sc2c(c1C)C(c1ccc(Cl)cc1)=N[C@@H](CC(=O)OC(C)(C)C)c1nnc(C)n1-2 [JQ1] + Nc1nc2[nH]cc(CCc3ccc(C(=O)N[C@@H](CCC(=O)O)C(=O)O)cc3)c2c(=O)[nH]1 [Pemetrexed] (partner 0.2 µM)

>  <relative viability>
0.209

$$$$

The record that follows has no relative viability shown yet.
relative viability value, target or system LC-2-ad, for Cc1sc2c(c1C)C(c1ccc(Cl)cc1)=N[C@@H](CC(=O)OC(C)(C)C)c1nnc(C)n1-2 [JQ1] + CC(C)C[C@H](NC(=O)[C@H](Cc1ccccc1)NC(=O)c1cnccn1)B(O)O [Bortezomib] (partner 0.002 µM) : 0.109

* * *

# System: COR-L 105
# Procedure Summary: relative viability (nuclei count vs DMSO), 5 days (fraction); higher = more cells survive
# Settings: first compound 0.08 µM
Readout Type: relative viability
Hey, just send me the number, nothing else.

Completed entries (count: 4):
>  <Molecule>
Cc1cnc(-c2cnc(NCCNc3ccc(C#N)cn3)nc2-c2ccc(Cl)cc2Cl)[nH]1 + Cc1nc(NC(=O)N2CCC[C@H]2C(N)=O)sc1-c1ccnc(C(C)(C)C(F)(F)F)c1 [Alpelisib] (partner 2 µM)

>  <Readout Type>
relative viability

>  <Reported>
0.994

$$$$
>  <Molecule>
Cc1cnc(-c2cnc(NCCNc3ccc(C#N)cn3)nc2-c2ccc(Cl)cc2Cl)[nH]1 + N=C(N)NC(=N)NCCc1ccccc1 [Phenformin] (partner 250 µM)

>  <Readout Type>
relative viability

>  <Reported>
0.532

$$$$
>  <Molecule>
O=c1[nH]c2ccccc2n1C1CCN(CCCC(c2ccc(F)cc2)c2ccc(F)cc2)CC1 [Pimozide] + O=C(CCCCCCC(=O)Nc1ccccc1)NO [Vorinostat] (partner 1 µM)

>  <Readout Type>
relative viability

>  <Reported>
0.702

$$$$
>  <Molecule>
Cc1cnc(-c2cnc(NCCNc3ccc(C#N)cn3)nc2-c2ccc(Cl)cc2Cl)[nH]1 + Nc1nc2[nH]cc(CCc3ccc(C(=O)N[C@@H](CCC(=O)O)C(=O)O)cc3)c2c(=O)[nH]1 [Pemetrexed] (partner 0.2 µM)

>  <Readout Type>
relative viability

>  <Reported>
1.25

$$$$

Reported relative viability ( Cc1cnc(-c2cnc(NCCNc3ccc(C#N)cn3)nc2-c2ccc(Cl)cc2Cl)[nH]1 + CCNC(=O)c1noc(-c2cc(C(C)C)c(O)cc2O)c1-c1ccc(CN2CCOCC2)cc1 [Luminespib] (partner 0.01 µM) ) = 0.846

* * *

# Tested on: NCI-H1915
# Procedure Summary: relative viability (nuclei count vs DMSO), 5 days (fraction); higher = more cells survive
# Settings: first compound 0.253 µM
Entries and their relative viability
Hey, just send me the number, nothing else.

>  <Compound>
O=c1[nH]c2ccccc2n1C1CCN(CCCC(c2ccc(F)cc2)c2ccc(F)cc2)CC1 [Pimozide] + CC(=O)c1c(C)c2cnc(Nc3ccc(N4CCNCC4)cn3)nc2n(C2CCCC2)c1=O [Palbociclib] (partner 0.5 µM)

>  <relative viability>
0.498

$$$$
>  <Compound>
O=c1[nH]c2ccccc2n1C1CCN(CCCC(c2ccc(F)cc2)c2ccc(F)cc2)CC1 [Pimozide] + CS(=O)(=O)N1CCN(Cc2cc3nc(-c4cccc5[nH]ncc45)nc(N4CCOCC4)c3s2)CC1 [Pictilisib] (partner 1 µM)

>  <relative viability>
0.892

$$$$
>  <Compound>
Cc1cnc(-c2cnc(NCCNc3ccc(C#N)cn3)nc2-c2ccc(Cl)cc2Cl)[nH]1 + COc1cccc2cc(-c3nc([C@H]4CC[C@H](C(=O)O)CC4)n4ncnc(N)c34)[nH]c12 [OSI-027] (partner 0.5 µM)

>  <relative viability>
0.586

$$$$

The record that follows has no relative viability shown yet.
Reported relative viability ( O=c1[nH]c2ccccc2n1C1CCN(CCCC(c2ccc(F)cc2)c2ccc(F)cc2)CC1 [Pimozide] + O=C(CCCCCCC(=O)Nc1ccccc1)NO [Vorinostat] (partner 1 µM) ) = 0.48

* * *

Entries and their relative viability
# Test system: NCI-H1666
# Procedure Summary: relative viability (nuclei count vs DMSO), 5 days (fraction); higher = more cells survive
# Settings: first compound 1.265 µM
Hey, just send me the number, nothing else.

Reported relative viability ( Cc1sc2c(c1C)C(c1ccc(Cl)cc1)=N[C@@H](CC(=O)OC(C)(C)C)c1nnc(C)n1-2 [JQ1] + C[C@@H](Oc1cc(-c2cnn(C3CCNCC3)c2)cnc1N)c1c(Cl)ccc(F)c1Cl [Crizotinib] (partner 1 µM) ) = 0.451

Reported relative viability ( Cc1sc2c(c1C)C(c1ccc(Cl)cc1)=N[C@@H](CC(=O)OC(C)(C)C)c1nnc(C)n1-2 [JQ1] + COc1cccc2cc(-c3nc([C@H]4CC[C@H](C(=O)O)CC4)n4ncnc(N)c34)[nH]c12 [OSI-027] (partner 0.5 µM) ) = 0.581

Reported relative viability ( Cc1sc2c(c1C)C(c1ccc(Cl)cc1)=N[C@@H](CC(=O)OC(C)(C)C)c1nnc(C)n1-2 [JQ1] + Cc1nc(NC(=O)N2CCC[C@H]2C(N)=O)sc1-c1ccnc(C(C)(C)C(F)(F)F)c1 [Alpelisib] (partner 2 µM) ) = 0.507

Reported relative viability ( Cc1sc2c(c1C)C(c1ccc(Cl)cc1)=N[C@@H](CC(=O)OC(C)(C)C)c1nnc(C)n1-2 [JQ1] + Nc1nc2[nH]cc(CCc3ccc(C(=O)N[C@@H](CCC(=O)O)C(=O)O)cc3)c2c(=O)[nH]1 [Pemetrexed] (partner 0.2 µM) ) = 0.659

* * *

# Test system: NCI-H1915
# Procedure Summary: relative viability (nuclei count vs DMSO), 5 days (fraction); higher = more cells survive
# Settings: first compound 0.000632 µM
Readout Type: relative viability
Hey, just send me the number, nothing else.

Completed entries (count: 2):
>  <Compound>
CC(=O)O[C@@]12CO[C@@H]1C[C@H](O)[C@@]1(C)C(=O)[C@H](O)C3=C(C)[C@@H](OC(=O)[C@H](O)[C@@H](NC(=O)OC(C)(C)C)c4ccccc4)C[C@@](O)([C@@H](OC(=O)c4ccccc4)[C@H]21)C3(C)C [Docetaxel] + CC1(C)CCC(c2ccc(Cl)cc2)=C(CN2CCN(c3ccc(C(=O)NS(=O)(=O)c4ccc(N[C@H](CCN5CCOCC5)CSc5ccccc5)c(S(=O)(=O)C(F)(F)F)c4)cc3)CC2)C1 [Navitoclax] (partner 0.5 µM)

>  <Reported>
0.774

$$$$
>  <Compound>
CC(=O)O[C@@]12CO[C@@H]1C[C@H](O)[C@@]1(C)C(=O)[C@H](O)C3=C(C)[C@@H](OC(=O)[C@H](O)[C@@H](NC(=O)OC(C)(C)C)c4ccccc4)C[C@@](O)([C@@H](OC(=O)c4ccccc4)[C@H]21)C3(C)C [Docetaxel] + CC(C)C[C@H](NC(=O)[C@H](Cc1ccccc1)NC(=O)c1cnccn1)B(O)O [Bortezomib] (partner 0.002 µM)

>  <Reported>
0.95

$$$$

The record that follows has no relative viability shown yet.
relative viability value, target or system NCI-H1915, for CC(=O)O[C@@]12CO[C@@H]1C[C@H](O)[C@@]1(C)C(=O)[C@H](O)C3=C(C)[C@@H](OC(=O)[C@H](O)[C@@H](NC(=O)OC(C)(C)C)c4ccccc4)C[C@@](O)([C@@H](OC(=O)c4ccccc4)[C@H]21)C3(C)C [Docetaxel] + Nc1nc2[nH]cc(CCc3ccc(C(=O)N[C@@H](CCC(=O)O)C(=O)O)cc3)c2c(=O)[nH]1 [Pemetrexed] (partner 0.2 µM) : 0.47
